Tested on: SNB-75
Assay text: NCI tumour cell line growth inhibition, 48 h
Calls of active or inactive are those of the source. Rule as the data show it: active = GI50 up to about 1.1 µM and inactive = higher.
Thanks in advance; please answer with one of these: label 1 for active, label 0 for inactive

Below, 6 compounds whose answers are already recorded.
[
  {
    "Compound": "O=C1/C(=C/c2cccs2)NC(=S)N1CN1CCCC(CO)C1 (centres undefined)",
    "Class label": "label 0"
  },
  {
    "Compound": "COC(=O)C(=O)C(C(=O)C(=O)Nc1ccc(C)c(C)c1)c1nc2ccc([N+](=O)[O-])cc2nc1O (centres undefined)",
    "Class label": "label 0"
  },
  {
    "Compound": "CC(=O)Nc1ccc2c3c(cc(O)c2c1)N(C(=O)CCCCCC(=O)N1CC(CCl)c2c1cc(O)c1cc(NC(C)=O)ccc21)CC3CCl (centres undefined)",
    "Class label": "label 1"
  },
  {
    "Compound": "CC1OC(O)CC(N(C)C)C1O.CC1OC(O)CCC1O.CCC1CC(O)c2c(O)c3c(c(O)c2C1O)C(=O)c1cccc(O)c1C3=O (centres undefined)",
    "Class label": "label 1"
  },
  {
    "Compound": "C#CCOCC12C=CC(O1)C1C(=O)N(C)C(=O)C12 (centres undefined)",
    "Class label": "label 0"
  },
  {
    "Compound": "O=C(CCCN1CCC2(CC1)OC(=O)N(c1ccccc1)C2=O)c1ccccc1",
    "Class label": "label 0"
  }
]

Tell me the recorded outcome of this test for "N#C/C(=C\c1ccccc1)C(=O)Nc1nnc(-c2ccccc2)o1" . label 0

Tell me the recorded outcome of this test for "COP(=O)(Cc1ccccc1)Cc1ccccc1" . label 0

Tell me the recorded outcome of this test for CCOC(=O)/C(=C\c1cn(C(C)=O)c2ccccc12)P(C)(=O)OCC (centres undefined) . label 0

---

Tested on: IGROV-1
Assay text: NCI tumour cell line growth inhibition, 48 h
The source made the active and inactive calls. Rule as the data show it: active = GI50 up to about 1.1 µM and inactive = higher.
GI50 reference

Illustrative cases are given below, each with its answer.
[
  {
    "Compound": "O=C1CC(C(O)CO)CC(=O)N1 (stereo unspecified)",
    "Readout name": "GI50",
    "Reported measurement": "> 100 µM (inactive)"
  },
  {
    "Compound": "C(=N\\OCc1ccccc1)/c1ncccc1C1OCCO1",
    "Readout name": "GI50",
    "Reported measurement": "> 100 µM (inactive)"
  },
  {
    "Compound": "CC(C)=CC[S+]([O-])c1ccccc1NC1=CC(=O)CC(C)(C)C1 (stereo unspecified)",
    "Readout name": "GI50",
    "Reported measurement": "> 100 µM (inactive)"
  },
  {
    "Compound": "CC1=C(Br)C(=O)c2c(O)ccc(O)c2C1=O",
    "Readout name": "GI50",
    "Reported measurement": "1.59 µM (inactive)"
  },
  {
    "Compound": "Cc1ccc(/C=N/n2c(=O)[nH]c3ccccc3c2=O)cc1",
    "Readout name": "GI50",
    "Reported measurement": "> 100 µM (inactive)"
  }
]

Item under review: "CCOC(=O)C1(Cc2ccc3c(c2)CCC3)Cc2cc3c(cc2C1)CCC3" . Reported GI50? 46.8 µM (inactive)

---

Test system: OVCAR-3
Assay text: NCI tumour cell line growth inhibition, 48 h
Active and inactive are the calls of the source. Rule as the data show it: active = GI50 up to about 1.1 µM and inactive = higher.
Readout name: GI50

Illustrative cases are given below, each with its answer.
[
  {
    "Molecule": "COc1ccc(C(SCCO)(c2ccc(OC)cc2)c2ccc(OC)cc2)cc1",
    "GI50": "10.5 µM (inactive)"
  },
  {
    "Molecule": "O=C1C(C(O)(C(F)(F)Cl)C(F)(F)Cl)CCCC1C(O)(C(F)(F)Cl)C(F)(F)Cl (stereo not drawn)",
    "GI50": "> 10 µM (inactive)"
  }
]

Let us examine a further case.
Item under review: "CCOC(=O)COc1cc(-c2ccccc2F)nc2cc3c(cc12)OCO3" . Reported GI50? > 10 µM (inactive)

Origin of the recorded values: ChEMBL document CHEMBL1201862
